Test system: THP-1
experiment: Antiproliferative activity against human THP-1 cells assessed as inhibition of cell growth incubated for 72 hrs by MTT assay
Assay type: functional, cell-based
measurement-context: THP-1, 72 h
quantity-measured: IC50 (µM)

> print(dat)
               structure.smiles.string  system.tested  result.value
1  Cc1nccnc1C(=O)/C=C/c1ccccc1N1CCOCC1          THP-1          11.5
2     CCc1nccnc1C(=O)/C=C/C=C/c1ccccc1          THP-1          21.6
3         CCc1nccnc1C(=O)/C=C/c1ccccn1          THP-1           0.6
4      CCc1nccnc1C(=O)/C=C/c1cccc(F)c1          THP-1          6.22

I: CSc1ccc(/C=C/C(=O)c2cnccn2)cc1
II: Cc1nccnc1C(=O)/C=C/C=C/c1ccc(F)cc1
III: Cc1nccnc1C(=O)/C=C/c1ccc(S(C)(=O)=O)cc1
IV: CCc1nccnc1C(=O)/C=C/c1ccc(N(CC)CC)cc1
### Prompt Form: Sort by [IC50] Order [ ascending ] Give the labels in the order specified.
### Response III, I, IV, II

====

Overview of recorded pIC50 for various compounds
Tested on: KG-1
experiment: Antiproliferative activity against human KG-1 cells assessed as inhibition of cell growth incubated for 72 hrs by MTT assay
Assay type: functional, cell-based
measurement-context: KG-1, 72 h
Just the number, please; pIC50 means minus log10 of the concentration in mol/L.

Solved entries:
> print(dat)
                    structure.smiles.string  result.value
1          CCc1nccnc1C(=O)/C=C/c1ccc(OC)cc1          4.64
2  O=C(/C=C/c1cccc([N+](=O)[O-])c1)c1cnccn1          4.99
3        O=C(/C=C/c1ccccc1N1CCOCC1)c1cnccn1          5.67
4        CCc1nccnc1C(=O)/C=C/c1cccc(Cl)c1Cl          4.98
5    CCc1nccnc1C(=O)/C=C/c1ccc(C(C)(C)C)cc1          4.65
6               Cc1ccccc1/C=C/C(=O)c1cnccn1          4.82
7       Cc1nccnc1C(=O)/C=C/c1ccccc1N1CCOCC1          5.25
8              O=C(/C=C/c1ccccc1Cl)c1cnccn1          5.08

### Prompt What measured pIC50 goes with O=C(/C=C/c1cccc(Cl)c1)c1cnccn1 ?
### Response 5.00

### Prompt Proceed to O=C(/C=C/c1cc2ccccc2o1)c1cnccn1
### Response 5.02

### Prompt Entry CCc1nccnc1C(=O)/C=C/c1ccc(F)cc1F please
### Response 4.59

### Prompt Proceed to Cc1cccc(/C=C/C(=O)c2nccnc2C)c1
### Response 5.27

====

Tested on: THP-1
experiment: Antiproliferative activity against human THP-1 cells assessed as inhibition of cell growth incubated for 72 hrs by MTT assay
Format: functional, cell-based
measurement-context: THP-1, 72 h
pIC50: −log10 of the molar value.
quantity-measured: pIC50

Below are worked cases with known answers.
> print(dat)
                structure.smiles.string  quantity.measured  result.value
1             O=C(/C=C/c1cccs1)c1cnccn1              pIC50          5.00
2  O=C(/C=C/c1ccc(C(F)(F)F)cc1)c1cnccn1              pIC50          5.08
3      CCc1nccnc1C(=O)/C=C/c1ccc(SC)cc1              pIC50          5.57
4  CCc1nccnc1C(=O)/C=C/c1ccc(OC)c(OC)c1              pIC50          5.08
5      CCc1nccnc1C(=O)/C=C/c1cccc(Cl)c1              pIC50          5.23

1: O=C(/C=C/c1cccc(Br)c1)c1cnccn1
2: CCc1nccnc1C(=O)/C=C/c1ccc(S(C)(=O)=O)cc1
3: Cc1nccnc1C(=O)/C=C/c1ccc(C(C)(C)C)cc1
### Prompt Ordering: ascending pIC50. Answer by listing the labels in the requested order.
### Response 3, 1, 2
